Test system: DeltatarO mutant
Measurement Protocol: S. aureus survival, RN4220 and DeltatarO strains – OD600, teichoic acid synthesis inhibitors, primary screen (AID 463173)
Condition Notes: S. aureus RN4220 wild type/DeltatarO growth, OD600, 18 h, screened at 18.75 µg/mL (by protocol)
The campaign covered roughly 52,000 compounds. About 4,300 (8.3%) were called active. Cut-off read from the data, not from the text of the source: active = survival mostly below about 52% (no sharp cut-off); inactive = mostly above about 56%. The entries come from a sample that favours actives as a whole.
Select the correct class. Options are active, inactive and nothing else.

GET /call?item= `Cc1ccc(C(=O)Nc2ccccc2)cc1S(=O)(=O)Nc1ccc(Br)cc1` returns the recorded outcome of this test.
active

GET /call?item= `CC(=O)c1ccc(N2CCN(S(=O)(=O)c3ccc4[nH]c5c(c4c3)CCCC5)CC2)cc1` returns the recorded outcome of this test.
inactive

GET /call?item= `CCN(CC)S(=O)(=O)c1ccc(-c2nnc(SCC(=O)Nc3nc4ccccc4s3)o2)cc1` returns the recorded outcome of this test.
inactive

GET /call?item= CN(C)c1ccc(CNC(=O)C2CCCN(S(=O)(=O)c3ccc4c(ccn4C)c3)C2)cc1 (configuration not stated) returns the recorded outcome of this test.
inactive

GET /call?item= Cc1ccc(N2C(=O)c3[nH]nc(-c4ccc(Cl)cc4)c3C2c2ccc(F)cc2)cc1 (configuration not stated) returns the recorded outcome of this test.
active

---

Tested on: DeltatarO mutant
Measurement Protocol: S. aureus survival, RN4220 and DeltatarO strains – OD600, teichoic acid synthesis inhibitors, primary screen (AID 463173)
Condition Notes: S. aureus RN4220 wild type/DeltatarO growth, OD600, 18 h, screened at 18.75 µg/mL (by protocol)
Screen size: about 52,000 compounds; about 4,300 (8.3%) were called active. Rule as the data show it: active = survival mostly below about 52% (no sharp cut-off); inactive = mostly above about 56%. The sample as a whole holds a higher share of actives than the screen did.
Select the correct class. Options are active, inactive and nothing else.

Consider the following illustrative entries.
{"columns": ["Smiles Notation", "System", "Group Label"],
 "data": [
  ["COc1nc(-c2ccccc2)ccc1-c1noc(C(C)C)n1", "DeltatarO mutant", "inactive"],
  ["CN(Cc1ccccc1)C1CCNCC1", "DeltatarO mutant", "inactive"]
]}

Could you now consider this next compound?
GET /call?item= `CCOc1cc(-c2nc(-c3ccc(-c4ccc(C)cc4)nc3OC)no2)cc(OCC)c1OCC` returns the recorded outcome of this test.
active

---

System: DeltatarO mutant
Measurement Protocol: S. aureus survival, RN4220 and DeltatarO strains – OD600, teichoic acid synthesis inhibitors, primary screen (AID 463173)
Condition Notes: S. aureus RN4220 wild type/DeltatarO growth, OD600, 18 h, hits give low values, screened at 18.75 µg/mL (by protocol)
Among all 52,000 compounds or so, about 4,300 (8.3%) were called active. The entries come from a sample that favours actives as a whole.
Experimental Endpoint: survival (%)
Express your answer in %, writing the number without its unit.

Past entries and their recorded results:
{"columns": ["Molecule", "survival [%]"],
 "data": [
  ["CCOc1ccccc1NC(=O)N(C)CCc1c(C)nn(CC)c1C", 120],
  ["Cc1ccc(-c2nc(N3CCCC(C)C3)c3ccccc3n2)cc1 (stereo unspecified)", -2],
  ["O=c1c2oc3ccccc3c2n(Cc2ccccc2)c(=O)n1Cc1ccco1", 95]
]}

# return recorded survival for input `Cc1ccc2[nH]c3c(=O)n(CC(=O)N(C)Cc4ccccc4)ncc3c2c1`
-1

# return recorded survival for input `Cn1c(SCc2ccc(F)cc2)nc2ccc(C(=O)NCc3ccccc3)cc21`
49

# return recorded survival for input `CCOc1ccc(NC(=O)c2sc3ccccc3c2Cl)cc1`
68

# return recorded survival for input `CCc1ccc(NC(=O)Cn2c(=O)n(CCC(=O)NCc3ccc4c(c3)OCO4)c(=O)c3ccccc32)cc1`
91

# return recorded survival for input `O=C(CSc1nc(-c2ccccc2)cc(=O)[nH]1)Nc1ccccc1F`
89

# return recorded survival for input `Cc1cc(C)cc(OCCSc2nc(-c3cccs3)nc3cc(=O)[nH]n23)c1`
67

# return recorded survival for input `CC(C)c1ccc2c(c1)NC(c1ccc(F)cc1)=NC(c1cccs1)=N2`
45
